Tested on: Mycobacterium tuberculosis
Protocol Description: Cornell - Phenotypic assay to identify agents that inhibit growth of Mycobacterium tuberculosis
Format: functional
Design: scale not given: direction of the effect not stated beside the values
Experimental Conditions: 10 mM as filed; unlikely as a test dose
The whole screen tested about 53,000 compounds, of which about 900 (1.7%) showed an effect of 50% or more. The entries come from a sample that favours strong results as a whole.
Reported Percent Effect values for the following molecules.
Measurement Label: Percent Effect (%)

molecule="CCCc1nnc2sc(CC3CN(Cc4ccccc4)CCO3)nn12 (stereo not drawn)" target="Mycobacterium tuberculosis" unit_of_measure=% value_reported=22.38
molecule=Cc1nn(C)cc1-c1cc(C(=O)NCC(C)(C)c2cccc(F)c2)n[nH]1 target="Mycobacterium tuberculosis" unit_of_measure=% value_reported=26.97
molecule=COCC(=O)N1Cc2nc3c(C)c(-c4cccs4)nn3c(O)c2C1 target="Mycobacterium tuberculosis" unit_of_measure=% value_reported=3.993
molecule=Cc1nn(C)cc1-c1cc(C(=O)NCC(C)(C)c2ccccc2F)n[nH]1 target="Mycobacterium tuberculosis" unit_of_measure=% value_reported=-16.11
molecule=Cc1cccc(NC(=O)c2csc(NCC(C)C)n2)n1 target="Mycobacterium tuberculosis" unit_of_measure=% value_reported=22.32
molecule=O=c1[nH]c(CN2CCN(CC(F)(F)F)CC2)nc2ccccc12 target="Mycobacterium tuberculosis" unit_of_measure=% value_reported=9.356
molecule=CC(C)Nc1nc(C(=O)Nc2ccccn2)cs1 target="Mycobacterium tuberculosis" unit_of_measure=% value_reported=27.58
molecule=Cc1nn(C)cc1-c1cc(C(=O)NCC(C)(C)c2ccc(F)cc2)n[nH]1 target="Mycobacterium tuberculosis" unit_of_measure=% value_reported=61.27
molecule="Cc1noc(-c2c[nH]nc2C2CCCN2C(=O)c2ccccc2)c1C (stereo not drawn)" target="Mycobacterium tuberculosis" unit_of_measure=% value_reported=-2.6
molecule=O=C(Nc1ccccn1)c1csc(NC2CCCC2)n1 target="Mycobacterium tuberculosis" unit_of_measure=% value_reported=105.8
molecule=Cn1nc2c(cc1=O)CN(CCc1nc3ccccc3c(=O)[nH]1)CC2 target="Mycobacterium tuberculosis" unit_of_measure=% value_reported=8.475
molecule=O=C(O)C(F)(F)F.c1coc(CN2CCCn3c(nnc3Cn3cccc3)C2)c1 target="Mycobacterium tuberculosis" unit_of_measure=% value_reported=21.05
molecule=COc1cccc(C(=O)N2C[C@@H](c3ccccc3)[C@@H]3NCCCC[C@@H]32)c1 target="Mycobacterium tuberculosis" unit_of_measure=% value_reported=4.696
molecule=Cc1nn(C)cc1S(=O)(=O)N[C@@H]1CCC[C@@H](N2CCCC2)[C@@H]1O target="Mycobacterium tuberculosis" unit_of_measure=% value_reported=19.92
molecule=CC(=O)Nc1cccc(OCCNC(=O)N(C)Cc2ccco2)c1 target="Mycobacterium tuberculosis" unit_of_measure=% value_reported=2.051
molecule="CCC(C(=O)Nc1ccc2cn(CC)nc2c1)N1CCCC1=O (stereo not drawn)" target="Mycobacterium tuberculosis" unit_of_measure=% value_reported=13.02
molecule=Cc1cnc(NC(=O)c2csc(NC3CCCC3)n2)s1 target="Mycobacterium tuberculosis" unit_of_measure=% value_reported=99.29
molecule="CC(NC(=O)Nc1nccs1)C(=O)NC1CCCC1 (stereo not drawn)" target="Mycobacterium tuberculosis" unit_of_measure=% value_reported=13.09
molecule=CC(=O)N1CCC(c2nccnc2CNC(=O)c2cc[nH]n2)CC1 target="Mycobacterium tuberculosis" unit_of_measure=% value_reported=-11.98
molecule=Oc1nc(N2CCOCC2)nc2c1CCN(Cc1cccc(F)c1)CC2 target="Mycobacterium tuberculosis" unit_of_measure=% value_reported=-50.2
molecule=CN(CCC(F)(F)F)Cc1nc2ccccc2c(=O)[nH]1 target="Mycobacterium tuberculosis" unit_of_measure=% value_reported=7.133
molecule="Cc1cc(N2CCOCC(Cc3ccc4[nH]ccc4c3)C2)ncn1 (stereo not drawn)" target="Mycobacterium tuberculosis" unit_of_measure=% value_reported=26.85
molecule=Cc1c(-c2cccs2)nn2c(O)c3c(nc12)CN(C(=O)C1CC1)C3 target="Mycobacterium tuberculosis" unit_of_measure=% value_reported=54.87
